Where do the numbers come from? From patent US20170305882A1.

- Tested on: histone 2A phosphorylation (kinase activity of Bub1)
- experimental-details: H2A Formation-Assay (cell-based mechanistic assay, co-treatment with Nocodazole)
- details: 16 h, read-out: Biological Assay 4.1: H2A Formation IC50
I'd be grateful if you could share measured IC50 for these entries.
Numbers only, in nM.

CCOc1cc(F)c(Cn2nc(-c3ncc(OCCCO)c(Nc4ccncc4C4CC4)n3)c3ccccc32)c(F)c1 [Example 2-1-3] | 0.97
CCOc1cc(F)c(Cn2nc(-c3ncc(OCCO)c(Nc4ccncc4)n3)c3ccccc32)c(F)c1 [Example 5-6-1, reference compound] | 1100
Cc1nccc(Nc2nc(-c3nn(Cc4c(F)cc(OCC5CC5)cc4F)c4ccccc34)ncc2OCCCO)n1 [Example 2-1-24] | 2.1
Cc1nccc(Nc2nc(-c3nn(Cc4c(F)cc(OCC(F)(F)F)cc4F)c4ccccc34)ncc2OCCCO)n1 [Example 2-1-19] | 3.5
OCCCOc1cnc(-c2nn(Cc3c(F)cc(OCC(F)(F)F)cc3F)c3ccccc23)nc1Nc1ccncc1Cl [Example 2-1-20] | 110
CCOc1cc(F)c(Cn2nc(-c3ncc(OCCCO)c(Nc4ccnc(C)c4)n3)c3ccccc32)c(F)c1 [Example 2-1-4] | 8.4

Go through the items and report each one's IC50.
1. CCOc1cc(F)c(Cn2nc(-c3ncc(OCCCO)c(Nc4ccnc(NC(=O)C5CC5)c4)n3)c3ccccc32)c(F)c1 [Example 2-1-15]
2. CCOc1cc(F)c(Cn2nc(-c3ncc(OCCCO)c(Nc4cc(C)ncc4C)n3)c3ccccc32)c(F)c1 [Example 2-1-11]
3. OCCCOc1cnc(-c2nn(Cc3c(F)cc(OCC4CC4)cc3F)c3ccccc23)nc1Nc1ccncc1Cl [Example 2-1-13]
4. CCOc1cc(F)c(Cn2nc(-c3ncc(OCCCO)c(Nc4ccnc(F)c4)n3)c3ccccc32)c(F)c1 [Example 2-1-10]

Resp:
1: 37; 2: 26; 3: 360; 4: 44

* * *

- tested-system: (recombinant) catalytic domain of human Bub1 (amino acids 704-1085) (Homo sapiens, UniProt O43683)
- Construct: catalytic domain of human Bub1 (amino acids 704-1085); 6xHis (N); made in house; host or cells: Hi5 insect cells
- experimental-details: Equilibrium probe competition assay (TR-FRET kinase binding assay)
- details: Time 15 min; read-out: IC50 (Assay 5, probe competition)
I'd be grateful if you could share measured pIC50 for these entries.
Numbers only, as −log10 of the molar value.

CCOc1cc(F)c(Cn2nc(-c3ncc(OCCCOC(=O)[C@H](C)NC(=O)[C@@H](N)CCCCN)c(Nc4ccncc4Cl)n3)c3ccccc32)c(F)c1 [Example 4-1-5] | 8.82
CCOc1cc(F)c(Cn2nc(-c3ncc(OCCCO)c(Nc4ccnc(NC(C)=O)c4)n3)c3ccccc32)c(F)c1 [Example 2-1-5] | 9.23
CCOc1cc(F)c(Cn2nc(-c3ncc(OCCCOC(=O)[C@H](C)NC(=O)[C@H](N)CCCCN)c(Nc4ccnc(NC(C)=O)c4)n3)c3ccccc32)c(F)c1 [Example 4-1-3] | 8.96
CCOc1cc(F)c(Cn2nc(-c3ncc(OCCCOC(=O)[C@H](C)NC(=O)[C@@H](N)CCCCN)c(Nc4ccnc(C(F)F)c4)n3)c3ccccc32)c(F)c1 [Example 4-1-1] | 8.85
CCOc1cc(F)c(Cn2nc(-c3ncc(OCCCO)c(Nc4ccncc4Cl)n3)c3ccccc32)c(F)c1 [Example 2-1-6] | 8.77

With those in mind, consider the next molecule.
Req: Retrieve pIC50 measured for CCOc1cc(F)c(Cn2nc(-c3ncc(OCCCOC(=O)[C@H](C)NC(=O)[C@@H](N)CCCNC(=N)N)c(Nc4ccnc(NC(C)=O)c4)n3)c3ccccc32)c(F)c1 [Example 4-1-4] and print it.
Resp: 8.55
